Test system: MDA-MB-468 breast
Assay Method Text: NCI tumour cell line growth inhibition, 48 h
Assign a class from recorded TGI; defined classes: L = under 3 µM, M = from 3 µM up to 10 µM, H = 10 µM and over

Compound | Category Label
COC(=O)c1cc2ccc(O)c(O)c2cn1 | H
COc1cccc2c1nc(C(F)F)n2-c1nc(-c2ccc(NS(=O)(=O)CCN(C)C)cc2)nc(N2CCOCC2)n1 | L
CCN1CCN(CCC(=O)Nc2cccc(-n3cc(-c4ccncc4)c(-c4ccc(Cl)c(OC)c4)n3)c2)CC1 | L
CC(C)=CC[C@@H]1CC2(CC=C(C)C)C(=O)C(OC3(C(=O)c4ccccc4)C(=O)C4(CC=C(C)C)C[C@@H](CC=C(C)C)C(C)(C)C(CC=C(C)C)(C4=O)C3=O)(C(=O)c3ccccc3)C(=O)C(CC=C(C)C)(C2=O)C1(C)C (some centres not stated) | M
CCOc1ccc(N(C)c2ccc(/C=C/C3=[N+](C)c4ccccc4C3(C)C)cc2)cc1 | L
O=C(N/N=C/c1ccc(Cl)cc1)c1ccc(NC(=O)c2ccccn2)cc1 | H
O=[N+]([O-])c1ccc(C2=NCCO2)cc1 | H
C[C@@H]1CN2[C@H]3[C@@H]1CC[C@]31CCC(=O)O[C@]1(C)[C@H]1CC[C@H]3CCC=C3[C@@H]12 | H
O=c1[nH]c2ccccc2n1C1CCNCC1 | H
CCOC(=O)c1noc2c1CCc1c-2cn(Cc2ccc(OC)cc2)c1-c1cc(OC)c(OC)c(OC)c1 | H
O=C(CCCc1ccc(N(CCCl)CCCl)cc1)NCc1ccccc1 | H
CC1=C(CCCOC(=O)[C@H](N)CC(C)C)C2=C(C)C3(CC3)[C@@](C)(O)C(=O)C2=C1 | M
Nc1ccc(/C=C/c2ccc3ncccc3c2)cc1 | H
CN1C(=O)C(c2c[nH]c3ccccc23)=C(c2c[nH]c3ccccc23)C1=O | H
Cc1[nH]nc2ccc(-c3nc4cnc(N5CCN(C)CC5)cn4c3Nc3ccc(F)cc3Br)cc12 | M

###

In this section, each of the molecules is paired with its reported GI50.
Tested on: MDA-MB-468 breast
Assay Method Text: NCI tumour cell line growth inhibition, 48 h

Molecule | GI50
O=C(CCCc1ccc(N(CCCl)CCCl)cc1)NCc1ccccc1 | 2750 nM
COC(=O)c1c2c(c(C)[n+]([O-])c1C)C(=O)C(NCc1ccc(OC)cc1)=CC2=O | 1270 nM
Cn1ncnc1[C@@H]1c2n[nH]c(=O)c3cc(F)cc(c23)N[C@H]1c1ccc(F)cc1 | > 100000 nM
CNC(=O)Oc1cc(C(C)C)ccc1Sc1ccc(C(C)C)cc1OC(=O)NC | 2340 nM
CC(Nc1ncnc2ccc(-c3cnc(N)nc3)cc12)c1ccccc1 (stereo unspecified) | 1170 nM
O=c1[nH]c2ccccc2n1C1CCNCC1 | > 100000 nM
Sc1cccc2cccnc12 | 2710 nM
COC(=O)[C@@H](C)C[C@H](Cc1ccccc1)NC(=O)c1nc([C@@H](C[C@H](C(C)C)N(C)C(=O)[C@@H](NC(=O)[C@H]2C[C@H](O)CCN2C)C(C)C)OC(C)=O)sc1C(C)C | < 1.11 nM
O=C(/C=C\c1ccc(O)c(O)c1)c1ccccc1O | 2980 nM
COc1ccc(C2=NN(C(N)=S)C(c3ccc4c(c3)OCO4)C2)cc1 (stereo unspecified) | 2680 nM
O=C1NC(=O)C(c2c[nH]c3ccccc23)=C1c1c[nH]c2ccccc12 | 8280 nM
COc1cccc2c1nc(C(F)F)n2-c1nc(-c2ccc(NS(=O)(=O)CCN(C)C)cc2)nc(N2CCOCC2)n1 | 71.1 nM
O=[N+]([O-])c1ccc(C2=NCCO2)cc1 | > 100000 nM
ClC1=C(Cl)C(Cl)(C2(Cl)C(Cl)=C(Cl)C(Cl)=C2Cl)C(Cl)=C1Cl | 334 nM
CN1C(=O)C(c2c[nH]c3ccccc23)=C(c2c[nH]c3ccccc23)C1=O | 5120 nM
CCOC(=O)c1noc2c1CCc1c-2cn(Cc2ccc(OC)cc2)c1-c1cc(OC)c(OC)c(OC)c1 | 5620 nM
COc1cc(/C=C/C(=O)c2cccc(-n3cc(-c4ccccc4)[nH]c3=O)c2)cc(OC)c1OC | 1800 nM
Nc1c(C(=O)Nc2cccc(Cl)c2)sc2nc3c(cc12)C(=O)CCC3 | 87.9 nM
Nc1ccc(/C=C/c2ccc3ncccc3c2)cc1 | > 100000 nM
Cc1[nH]nc2ccc(-c3nc4cnc(N5CCN(C)CC5)cn4c3Nc3ccc(F)cc3Br)cc12 | 1570 nM
O=C(NCc1cn(Cc2cccc(Oc3ccccc3)c2)nn1)c1cccnc1Nc1ccc(F)cc1 | 5170 nM
